Listing of entries alongside the reported composite z-score.
Protocol Details: small-molecule microarray binders of probe aLefty2, primary screen, biochemical, biotinylated probe, 635/667 nm fluorescence (AID 1094);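 also: score merges spot fluorescence near 667 nm with spot signal-to-noise ratio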
Particulars: higher = more signal
Hey, just send me the number, nothing else.

Answered examples (3):
{"Compound": "CC(C)=CCCC(C)=CCON=C1C[C@@H](O)[C@@H](O)[C@@H]2[C@@H]3C(=O)N(C(C)(C)C)C(=O)[C@@H]3CC[C@H]12", "Measure": "composite z-score", "Quantitative Result": -0.138}
{"Compound": "CCOC(=O)NN=C1C[C@@H](O)[C@@H](O)[C@@H]2[C@@H]3C(=O)N(c4ccc(F)cc4F)C(=O)[C@@H]3CC[C@@H]12", "Measure": "composite z-score", "Quantitative Result": -0.0347}
{"Compound": "CCOC(=O)[C@H](Cc1ccccc1)NC(=O)CCC1CC(OC(=O)NCCc2ccc(F)cc2)CC2(CCCC(COC(=O)NCCOC)O2)O1 (some centres undefined)", "Measure": "composite z-score", "Quantitative Result": -0.147}

As a next step, examine the compound that follows.
Prompt: What value of measured composite z-score is listed for COC(=O)CC=C[C@H](C)[C@@H](OCc1cccc(Br)c1)[C@@H](C)[C@H](OC)C1CCCCC1 ?
Completion: -0.166
